- TESTED TARGET: Peroxisome proliferator-activated receptor gamma (Homo sapiens)
- Sequence (P37231 whole entry, the tested form may be a part): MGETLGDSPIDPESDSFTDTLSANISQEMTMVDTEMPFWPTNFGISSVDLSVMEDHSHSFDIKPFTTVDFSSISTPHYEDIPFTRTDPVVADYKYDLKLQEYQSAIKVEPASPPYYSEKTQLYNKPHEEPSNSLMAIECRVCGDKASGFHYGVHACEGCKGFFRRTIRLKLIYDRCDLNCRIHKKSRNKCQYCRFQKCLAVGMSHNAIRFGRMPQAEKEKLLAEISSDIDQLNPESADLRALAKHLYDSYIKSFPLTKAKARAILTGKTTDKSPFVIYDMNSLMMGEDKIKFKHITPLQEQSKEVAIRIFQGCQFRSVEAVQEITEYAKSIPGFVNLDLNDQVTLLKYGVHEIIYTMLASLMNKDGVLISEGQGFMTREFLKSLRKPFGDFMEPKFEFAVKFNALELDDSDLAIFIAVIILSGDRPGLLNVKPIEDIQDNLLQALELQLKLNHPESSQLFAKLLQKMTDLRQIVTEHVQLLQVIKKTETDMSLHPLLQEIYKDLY
- ASSAY PROCEDURE: Reporter Gene Assay: Transactivation Assay Expression vectors were prepared by inserting the ligand binding domain cDNA (complementary DNA) of human PPARalpha (amino acid 168-468) and human PPARgamma (amino acid 205-505), 3′ to and in frame with, the yeast GAL4 transcription factor DNA binding domain and the nuclear localization signal from the T-antigen of Polyoma Virus into the mammalian expression vector pSGS (Stratagene). The resulting expression vectors pSGGAL-PPARalpha and pSGGAL-PPARgamma were used in co-transfection experiments together with a modified pGL3 promoter plasmid (Promega) containing five copies of the UAS GAL4 recognition site. 2.5 μg pSGGAL-PPARalpha or pSGGAL-PPARgamma were mixed with 25 μg pGL3p […] and 22.5 μg pBluescript (Stratagene) in 0.95 mL ice cold PBS containing between 9-12 million U-2 OS (human osteosarcoma) cells. The cell/DNA mixture was incubated on ice for 5 minutes and then divided between two 0.4 cm cuvettes and electroporated at 960 μF, 2
ATTRIBUTE MEASURED: pEC50
Answers are plain numbers, as −log10 of the molar value.

CS(=O)(=O)Oc1ccc(CC(=O)OCc2ccc(CC(SCCc3ccc(F)cc3)C(=O)O)cc2)cc1 (stereo not drawn) ... 5.77
O=C(Cc1ccccn1)OCc1ccc(CC(SCCc2ccc(F)cc2)C(=O)O)cc1 (stereo not drawn) ... 5.68

Entry under review: CS(=O)(=O)Oc1ccc(C(=O)OCc2ccc(CC(SCCc3ccc(F)cc3)C(=O)O)cc2)cc1 (stereo not drawn) . Reported pEC50? 5.74
